Data provenance: patent US20050233413A1

Tested on: Aβ and four FAD genes (V642I-APP, NL-APP, M146L-PS1, and N141I-PS2)
Format: cell-based
Settings: Table 5, marked *
Where no end group is shown, it is not given here. [ ]: non-standard residue; d: D form. pS = N[C@@H](COP(=O)(O)O)C(=O)O
Experimental readout: Full protection (minimal concentration that exerted full cytoprotection)

Some substances with recorded Full protection (minimal concentration that exerted full cytoprotection):
| Substance | Reading |
| --- | --- |
| EFLIVIKSMAPRGFSCLLLLTGEIDLPVKRRA [EF-HNG] | ˜1 nM |
| MAPRGFSCLLLLTGEIDLPVKRRA [HNG, reference compound] | ˜10 nM |
| MAPRGF(p-S)CLLLLTSEIDLPVKRRA (MAPRGF[pS]CLLLLTSEIDLPVKRRA) [P-S7 HN] | ˜10 μM |
| MAPRGFSCLLLLT(D-S)EIDLPVKRRA [D-Ser14 HN] | ˜10 nM |
| MAPRGF(D-Ser)CLLLLT(D-Ser)EIDLPVKRRA (MAPRGF[dS]CLLLLT[dS]EIDLPVKRRA) [D-Ser7/14 HN] | ˜10 nM |
| MAPAGASCLLLLTGEIDLPVKRRA [AGA-HNG, reference compound] | 100 to 300 pM |

Prompt: // lookup Full protection (minimal concentration that exerted full cytoprotection) for MAPRGF(D-Ser)CLLLLTSEIDLPVKRRA [D-Ser7 HN]
Completion: ˜10 μM
